Listing of recorded GFP response, % of DMSO by entry.
- ASSAY EXPLANATION: TOR pathway CIT2 reporter hit retest – S. cerevisiae, GFP fusion, cherry picks, mother/daughter gates, confirmation (AID 2274)
- REPORTED CONDITIONS: S. cerevisiae CIT2-GFP strain, flow cytometry, 3 h; measured here: daughter cell gate; at 10 µM; stronger effect = higher value
MEASURED ATTRIBUTE: GFP response, % of DMSO (%)

| QUERY SMILES | UOM | TEST RESULT |
| --- | --- | --- |
| O=C(NC1CCCCC1)N1CCc2[nH]c3ccccc3c2C1 | % | 105 |
| COC(=O)n1c(=S)oc2cc(Cl)ccc21 | % | 98.3 |
| O=C(C#Cc1ccccc1)c1cccc([N+](=O)[O-])c1 | % | 110 |
| Cn1c(=O)c(C(=O)NCCO)c(O)c2ccccc21 | % | 108 |
| COc1ccc(C2=CC(=O)C=CC2=O)cc1 | % | 111 |
| O=C1ON=C(c2ccc(Cl)cc2)/C1=C/c1ccc(O)cc1 | % | 114 |
